From: ChEMBL document CHEMBL1165941

Biological target: Glucose-6-phosphatase catalytic subunit 1 (Homo sapiens)
Experiment: Inhibition of glucose-6-phosphatase assessed as inositol phosphate release at 100 uM after 30 mins
Details: in the assay text read “inorganic phosphate” for “inositol phosphate”
The source made the active and inactive calls. The calls are words filed in the database; no cut-off is given here.
RECORDED_METRIC: inhibition

Illustrative cases are given below, each with its answer.
CC1(C)CC(=O)c2c(-c3ccc(Cl)cc3)cc(-c3ccccc3)nc2C1; 11.3%
CC1(C)CC(=O)C2=C(C1)NC(C(=O)O)=CC2c1ccc(F)cc1 (stereo unspecified); 16.8%
CCOC(=O)C1=CC(c2ccc(F)cc2)C2=C(CC(C)(C)CC2=O)N1 (stereo unspecified); inactive
CCOC(=O)C1=CC(c2ccc(OC)cc2)C2=C(CC(C)(C)CC2=O)N1 (stereo unspecified); 23.8%
COc1ccc(C2C=C(C(=O)O)NC3=C2C(=O)CC(C)(C)C3)cc1 (stereo unspecified); inactive

Exam item: Look up inhibition for this molecule: O=C1CCCC2=C1C(c1ccccc1)C=C(c1ccccc1)N2 (stereo unspecified)
Marked response: inactive

Exam item: Any idea what inhibition was measured for O=C1CCCC2=C1C(c1ccc(Cl)cc1)C=C(c1ccccc1)N2 (stereo unspecified) ?
Marked response: 8.21%

Exam item: For Cc1ccc(C2=CC(c3ccccc3)C3=C(CCCC3=O)N2)cc1 (stereo unspecified) , what is its reported inhibition?
Marked response: 27.7%

Exam item: // query inhibition value for entry CCOC(=O)C1(O)CC(c2ccccc2)C2=C(CC(C)(C)CC2=O)O1 (stereo unspecified)
Marked response: inactive

Exam item: Entry CC1(C)CC(=O)C2=C(C1)NC(C(=O)O)=CC2c1ccc(Cl)cc1 (stereo unspecified) has what inhibition?
Marked response: inactive

Exam item: Quick one: inhibition for O=C1CCCC2=C1C(c1ccc(F)cc1)C=C(c1ccccc1)N2 (stereo unspecified) ?
Marked response: 21.9%
